Hey, just so you know, these numbers are from patent US4395417A.

measured on: Acetyl-CoA Synthetase (Mus musculus, UniProt Q9QXG4)
Construct: gm wet tissue/30 min; from tissue
Sequence (Q9QXG4 whole entry): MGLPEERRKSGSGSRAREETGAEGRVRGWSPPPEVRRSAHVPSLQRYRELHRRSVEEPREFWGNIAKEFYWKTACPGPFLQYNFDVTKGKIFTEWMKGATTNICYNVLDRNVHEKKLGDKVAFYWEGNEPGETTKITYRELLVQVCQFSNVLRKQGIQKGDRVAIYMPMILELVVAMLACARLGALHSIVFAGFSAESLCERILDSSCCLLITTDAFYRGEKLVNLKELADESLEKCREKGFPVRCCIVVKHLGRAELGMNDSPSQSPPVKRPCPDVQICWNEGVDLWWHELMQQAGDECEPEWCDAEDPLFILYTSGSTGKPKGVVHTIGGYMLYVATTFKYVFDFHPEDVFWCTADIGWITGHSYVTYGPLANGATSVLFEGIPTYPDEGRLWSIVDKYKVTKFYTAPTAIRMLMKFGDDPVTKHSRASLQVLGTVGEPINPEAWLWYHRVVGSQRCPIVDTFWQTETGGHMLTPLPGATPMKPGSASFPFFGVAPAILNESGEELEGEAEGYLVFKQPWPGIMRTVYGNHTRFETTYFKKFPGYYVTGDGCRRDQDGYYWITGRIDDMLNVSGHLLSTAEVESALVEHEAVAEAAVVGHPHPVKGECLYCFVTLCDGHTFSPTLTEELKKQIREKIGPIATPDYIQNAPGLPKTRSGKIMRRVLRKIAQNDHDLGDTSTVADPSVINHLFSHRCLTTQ
protocol: In vitro acetyl coenzyme A synthetase activity (method of Goodridge)
Type: biochemical, mice
setup conditions: Table 3, N = 6, control 10.8 mg/g wet tissue
measurement type: in vitro AcCoA synthetase (% Control)

>>> print(df.to_string())
                                   molecule  numeric_value
0                O=C(O)CN1C(=O)c2ccccc2C1=O             72
1             CC(=O)CCCCN1C(=O)c2ccccc2C1=O             68
2  CCCCCCN1C(=O)c2ccccc2C1=O [N--n-hexylphthalimide]             71
3  CCCCCCCN1C(=O)c2ccccc2C1=O [N--n-heptylphthalimide]             71
4  CCCCCN1C(=O)c2ccccc2C1=O [N--n-pentylphthalimide]             68
